Test system: SK-MEL-5 melanoma
procedure details: NCI tumour cell line growth inhibition, 48 h; in the data active = GI50 below about 0.43 µM; inactive = the rest
Classes used: active, inactive

[
  {
    "molecule": "CCC(C)Nc1ccc(N)cc1 (centres undefined)",
    "assigned class": "inactive"
  },
  {
    "molecule": "C[C@]12CC[C@H]3[C@@H](CC=C4C[C@@H](N5CCCC5)CC[C@@]43C)[C@@H]1C/C(=C\\c1cccc(OCCN3CCOCC3)c1)[C@@H]2O",
    "assigned class": "inactive"
  },
  {
    "molecule": "COc1ccc2c(c1OC)CO[C@@H]2[C@H]1c2c(cc3c(c2OC)OCO3)CCN1S(=O)(=O)c1cn(C)cn1",
    "assigned class": "inactive"
  },
  {
    "molecule": "CC1=C(c2ccccc2)C(O)(c2ccccc2)C(C)C1=O (centres undefined)",
    "assigned class": "inactive"
  },
  {
    "molecule": "O=C1CC(c2cccc(F)c2)Nc2cc3c(cc21)OCO3 (centres undefined)",
    "assigned class": "active"
  },
  {
    "molecule": "Cc1csc2[n+]1-c1ccccc1N(C(=O)Nc1ccccc1)C(C)C2 (centres undefined)",
    "assigned class": "inactive"
  },
  {
    "molecule": "CNC(=O)c1c(NC(=O)c2ccc(C(C)(C)C)cc2)sc2c1CCC(=O)C2",
    "assigned class": "active"
  },
  {
    "molecule": "O=C(Nc1ccccc1)Nc1ccc2cc3ccc(NC(=O)Nc4ccccc4)cc3nc2c1",
    "assigned class": "inactive"
  },
  {
    "molecule": "COc1ccc(-c2nc(-c3ccc(C)cc3)cn3ccnc23)cc1",
    "assigned class": "inactive"
  },
  {
    "molecule": "CC1(C)CNc2cc(NC(=O)c3cccnc3NCc3ccncc3)ccc21",
    "assigned class": "inactive"
  },
  {
    "molecule": "COc1ccc2c(c1)nc(C(=O)c1ccco1)c(C(F)(F)F)[n+]2[O-]",
    "assigned class": "inactive"
  },
  {
    "molecule": "CC1C(C)N(C(=O)CCl)c2ccccc2N1C(=O)CCl (centres undefined)",
    "assigned class": "inactive"
  },
  {
    "molecule": "CNC(=O)c1c(NC(=O)c2ccc(C(C)(C)C)cc2)sc2c(CN(C)C)c(O)ccc12",
    "assigned class": "inactive"
  },
  {
    "molecule": "COc1cc(/C=N/Nc2ncnc3c2cnn3-c2ccccc2)ccc1O",
    "assigned class": "inactive"
  }
]

----------
Tested on: MDA-MB-435
procedure details: NCI tumour cell line growth inhibition, 48 h
experimental readout: TGI

[
  {
    "compound": "O=C(N/N=C\\c1ccc(N(CCCl)CCCl)cc1[N+](=O)[O-])c1cccnc1",
    "value measured": "> 100 µM"
  },
  {
    "compound": "O=c1ccn(C2OC(CO)C(O)C2F)c(=O)n1Cc1ccccc1 (stereo not drawn)",
    "value measured": "> 100 µM"
  },
  {
    "compound": "O=C(/C=C(\\S/C=C(/c1ccccc1)N1CCn2c(C(=O)c3ccccc3)c(C(=O)c3ccccc3)c(C(=O)c3ccccc3)c21)C(=O)c1ccccc1)c1ccccc1",
    "value measured": "> 10 µM"
  }
]

----------
Listed below: TGI values for each entry.
System: KM12 colon
procedure details: NCI tumour cell line growth inhibition, 48 h
experimental readout: TGI

[
  {
    "compound": "COc1cc(Nc2ncc(-c3ccccc3)o2)cc(OC)c1",
    "value measured": "> 25 µM"
  },
  {
    "compound": "Cc1ccc(S(=O)(=O)SC(C)(C)C)cc1",
    "value measured": "> 91.4 µM"
  },
  {
    "compound": "CSc1ccn(C2CC(F)C(CO)O2)c(=O)n1 (stereo unspecified)",
    "value measured": "> 100 µM"
  },
  {
    "compound": "Cc1sc2c(c1C)/C(=N\\O)c1cccn1-2",
    "value measured": "> 100 µM"
  },
  {
    "compound": "COc1cc(/C=N/Nc2ncnc3c2cnn3-c2ccccc2)ccc1O",
    "value measured": "> 25 µM"
  },
  {
    "compound": "Cc1cc(S(=O)(=O)Nc2nc3ccccc3nc2-c2ccc(Cl)cc2)c(S)cc1Cl",
    "value measured": "35.4 µM"
  },
  {
    "compound": "CCN(Cc1ccccc1)C1CCN(Cc2cc(Br)ccc2O)CC1",
    "value measured": "> 100 µM"
  },
  {
    "compound": "CCCCCCCCCCCC[C@@H](O)[C@H]1CCC([C@H](O)CCCCC(=O)CCCCCCCC2=C[C@H](C)OC2=O)O1 (stereo partly specified)",
    "value measured": "> 50 µM"
  },
  {
    "compound": "COc1ccc(C/C(=C(\\C)c2ccc(OCCN3CCCC3)cc2)c2ccc(OCCN3CCCC3)cc2)cc1",
    "value measured": "3.52 µM"
  },
  {
    "compound": "NCCCC[C@@H]1NC(=O)[C@H](CC(=O)O)NC(=O)CNC(=O)[C@H](CCCN=C(N)N)NC(=O)[C@@H](N)CSSC[C@@H](C(=O)O)NC(=O)[C@H](CC(=O)O)NC(=O)[C@@H]2CCCN2C(=O)CNC1=O",
    "value measured": "> 100 µM"
  },
  {
    "compound": "COc1ccccc1NC(=O)CC(=O)N1N=C(N2c3ccccc3Sc3ccccc32)CC1c1ccccc1 (stereo unspecified)",
    "value measured": "> 100 µM"
  }
]

----------
Tested on: A498 renal
procedure details: NCI tumour cell line growth inhibition, 48 h
Listed below: TGI values for each entry.

[
  {
    "molecule": "CN(C)c1ccc(/C=C(\\NC(=O)c2ccccc2)C2=NC(CCC(=O)O)C(=O)O2)cc1 (stereo not drawn)",
    "test target": "A498 renal",
    "TGI": "> 50 µM"
  },
  {
    "molecule": "Nc1ncn2c(n1)nc1ccccc12",
    "test target": "A498 renal",
    "TGI": "> 100 µM"
  },
  {
    "molecule": "S=c1[nH]n2c(CCCCCCCCc3nnc4sc(=S)[nH]n34)nnc2s1",
    "test target": "A498 renal",
    "TGI": "> 100 µM"
  }
]

----------
Listed below: TGI values for each entry.
Tested on: SK-MEL-5 melanoma
procedure details: NCI tumour cell line growth inhibition, 48 h
experimental readout: TGI

[
  {
    "molecule": "CCN(CC)CCN1C(=O)c2c(c3c4ccccc4[nH]c3c3ccc4ccccc4c23)C1=O",
    "test target": "SK-MEL-5 melanoma",
    "value measured": "3.12 µM"
  },
  {
    "molecule": "CC(C)(C)C1CCC2c3c([nH]c4ccccc34)C3C(=O)N(c4ccc(Cl)cc4)C(=O)C3C2C1 (centres undefined)",
    "test target": "SK-MEL-5 melanoma",
    "value measured": "> 100 µM"
  },
  {
    "molecule": "CCN(Cc1ccccc1)C1CCN(Cc2cc(Br)ccc2O)CC1",
    "test target": "SK-MEL-5 melanoma",
    "value measured": "28.9 µM"
  },
  {
    "molecule": "Cc1cc(S(=O)(=O)Nc2nnc3cnc4ccccc4n23)c(S)cc1Cl",
    "test target": "SK-MEL-5 melanoma",
    "value measured": "> 85.9 µM"
  }
]

----------
Test system: EKVX NSCLC
procedure details: NCI tumour cell line growth inhibition, 48 h

[
  {
    "compound": "CCOP(=O)(OCC)C1CCCOC1=O (stereo not given)",
    "TGI": "> 100 µM"
  },
  {
    "compound": "COC(=O)C1Cc2c(n(C)c3ccccc23)C(CCC(=O)O)N1Cc1ccccc1 (stereo not given)",
    "TGI": "> 100 µM"
  },
  {
    "compound": "COc1ccc(N=NC(=O)NC(CC(C)C)C(N)=O)cc1 (stereo not given)",
    "TGI": "> 100 µM"
  },
  {
    "compound": "C/C=C1\\CN(C(=O)OC(C)(C)C)C1C(=O)OC(C)(C)C (stereo not given)",
    "TGI": "> 100 µM"
  },
  {
    "compound": "CC(=O)Oc1c(N2CCCCC2)c(C(=O)c2ccccc2)c(O)c2ccn(N(C)C)c12",
    "TGI": "31.2 µM"
  },
  {
    "compound": "CC(=O)Nc1c(Nc2ccccc2)[nH]c(C)nc1=S",
    "TGI": "> 100 µM"
  },
  {
    "compound": "CN(c1ccc(C(=O)c2ccc(N(C)S(C)(=O)=O)cc2)cc1)S(C)(=O)=O",
    "TGI": "> 100 µM"
  },
  {
    "compound": "Cc1cc2c(C)n(Cc3ccccc3Cl)nc2c(C(=O)O)c1C",
    "TGI": "> 100 µM"
  },
  {
    "compound": "Cc1ccccc1NC(=O)c1sc2nc(C)c(C(=O)/C=C/c3ccccc3)cc2c1N",
    "TGI": "11.1 µM"
  },
  {
    "compound": "C=C1CC(Cn2ccc(=O)[nH]c2=O)(c2ccc(Cl)cc2)OC1=O (stereo not given)",
    "TGI": "35 µM"
  },
  {
    "compound": "O=C(Nc1cccc([N+](=O)[O-])c1)c1n[nH]n(-c2cccc([N+](=O)[O-])c2)c1=O",
    "TGI": "> 100 µM"
  },
  {
    "compound": "COc1cc(Nc2ncc(-c3ccccc3)o2)cc(OC)c1",
    "TGI": "> 25 µM"
  },
  {
    "compound": "COC(=O)N/N=C(\\C)c1c(O)cc(C)oc1=O",
    "TGI": "> 100 µM"
  },
  {
    "compound": "CCOC(=O)C(=O)CC1=Nc2ccccc2SC(c2cccc(C)c2)C1 (stereo not given)",
    "TGI": "40.4 µM"
  },
  {
    "compound": "O=C(O)[C@H](NS(=O)(=O)c1ccc(F)cc1)c1ccccc1",
    "TGI": "> 100 µM"
  }
]
